Reported Ka is given for each of the following binders.
systemTested: T1, biotinylated native human ApoC3 (human, UniProt P02656 21-99, biotinylated (site not stated))
T1 construct: also called biotinylated human ApoC3
T1 sequence (P02656 21-99): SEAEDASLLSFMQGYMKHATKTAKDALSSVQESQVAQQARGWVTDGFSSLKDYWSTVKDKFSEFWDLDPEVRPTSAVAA
testMethodNotes: SPR, IgG1 over biotinylated ApoC3 on SA chip, pH 7.4
Record the value in M⁻¹, omitting the unit from your answer.

Record excerpt, results attached:
[[record]]
binder = "mAb9 (antibody, IgG1, V domains shown, Produced as full length IgG1 (kappa) in ExpiCHO-S cells; also called humanized anti-ApoC3 antibody mAb9) VH: QLVESGGGLVQPGGSLRLSCAASGFTFSTYSMRWVRQAPGKGLEWVSSIHTDAGGTAYRDSVKGRFTISRDNAKNTLYLQMNNLRAEDTAVYYCVIAGYSDWGQGTLVTVSS VL: DIVMTQSPLSLSVTPGEPASISCKTSQGLVHSDGKTYFYWFLQKPGQSPQQLIYQVSNRASGVPDRFSGSGSGTDFTLKISRVEAEDVGVYYCAHGTYYPHTFGQGTRLEIK"
recordedmeasurement = "6.71e+09"

[[record]]
binder = "mAb6 (antibody, IgG1, V domains shown, Produced as full length IgG1 (kappa) in ExpiCHO-S cells; also called humanized anti-ApoC3 antibody mAb6) VH: QLVESGGGLVQPGGSLRLSCAASGFTFGTYSMRWVRQAPGKGLEWVSSIHTEGGGTAYRDSVKGRFTISRDNAKNTLYLQMNSLRAEDTAVYYCVIAGYSDWGQGTLVTVSS VL: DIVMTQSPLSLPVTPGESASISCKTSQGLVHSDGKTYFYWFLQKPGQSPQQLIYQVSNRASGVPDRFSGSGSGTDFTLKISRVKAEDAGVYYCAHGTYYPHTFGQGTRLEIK"
recordedmeasurement = "1.67e+10"

[[record]]
binder = "mAb7 (antibody, V domains shown, Produced as full length IgG1 (kappa) in ExpiCHO-S cells; also called humanized anti-ApoC3 antibody mAb7) VH: QLVESGGGLVQPGGSLRLSCAASGFTFSTYSMRWVRQAPGKGLEWVSSIHTGGGGTAYRDSVKGRFTISRDNAKNTLYLQMNNLRAEDTAIYYCVIAGYSDWGQGTLVTVSS VL: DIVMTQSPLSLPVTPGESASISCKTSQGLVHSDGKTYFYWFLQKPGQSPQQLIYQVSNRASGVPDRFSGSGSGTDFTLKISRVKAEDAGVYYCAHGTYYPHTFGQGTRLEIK"
recordedmeasurement = "1.08e+10"

[[record]]
binder = "mAb3 (antibody, IgG1, V domains shown, Produced as full length IgG1 (kappa) in ExpiCHO-S cells; also called humanized anti-ApoC3 antibody mAb3) VH: QLVESGGGLVQPGGSLRLSCAASGFTFGTYSMRWVRQAPGKGLEWVSSIHTEGGGTAYRDSVKGRFTISRDNAKNTLYLQMNSLRAEDTAIYYCVIAGYSDWGQGTLVTVSS VL: DIVMTQSPLSLPVTPGESASISCKTSQGLVHSDGKTYFYWFLQKPGQSPQQLIYQVSNRASGVPDRFTGSGSGTDFTLKISRVKAEDAGVYYCAHGTYYPHTFGQGTRLEIK"
recordedmeasurement = "9.11e+09"


Read the next record carefully.
Lookup: Which Ka is listed for 5E5VH5_VL8 human IgG1 (antibody, V domains shown, Tested as human IgG1; the tested lot is not tied to them in words) VH: QLQLVESGGGLVQPGGSLRLSCAASGFTFGTYSMRWVRQVPRKALEWVSSIHTDGGGTAYRDSVKGRFTISRDNAKNTLYLQMNNLKPEDTAIYYCVIAGYSDWGQGTQVTVSS VL: ATMLTQSPGSLSVVPGESASISCKTSQGLVHSDGKTYFYWFLQKPGQSPQQLIYQVSNRASGVPDRFTGSGSGTDFTLKISGVKAEDAGVYYCAHGTYYPHTFGSGTRLEIK ?
Found: 1.03e+09
